Target: T1, rat collagen, acid soluble, type I, rat tail (Upstate 08-115) (rat, UniProt P02454 152-1207; P02466 86-1125)
T1 construct: tissue extract, gelled and dried in wells; also called dried rat collagen
T1 sequence (P02454 152-1207, chain 1 of 2): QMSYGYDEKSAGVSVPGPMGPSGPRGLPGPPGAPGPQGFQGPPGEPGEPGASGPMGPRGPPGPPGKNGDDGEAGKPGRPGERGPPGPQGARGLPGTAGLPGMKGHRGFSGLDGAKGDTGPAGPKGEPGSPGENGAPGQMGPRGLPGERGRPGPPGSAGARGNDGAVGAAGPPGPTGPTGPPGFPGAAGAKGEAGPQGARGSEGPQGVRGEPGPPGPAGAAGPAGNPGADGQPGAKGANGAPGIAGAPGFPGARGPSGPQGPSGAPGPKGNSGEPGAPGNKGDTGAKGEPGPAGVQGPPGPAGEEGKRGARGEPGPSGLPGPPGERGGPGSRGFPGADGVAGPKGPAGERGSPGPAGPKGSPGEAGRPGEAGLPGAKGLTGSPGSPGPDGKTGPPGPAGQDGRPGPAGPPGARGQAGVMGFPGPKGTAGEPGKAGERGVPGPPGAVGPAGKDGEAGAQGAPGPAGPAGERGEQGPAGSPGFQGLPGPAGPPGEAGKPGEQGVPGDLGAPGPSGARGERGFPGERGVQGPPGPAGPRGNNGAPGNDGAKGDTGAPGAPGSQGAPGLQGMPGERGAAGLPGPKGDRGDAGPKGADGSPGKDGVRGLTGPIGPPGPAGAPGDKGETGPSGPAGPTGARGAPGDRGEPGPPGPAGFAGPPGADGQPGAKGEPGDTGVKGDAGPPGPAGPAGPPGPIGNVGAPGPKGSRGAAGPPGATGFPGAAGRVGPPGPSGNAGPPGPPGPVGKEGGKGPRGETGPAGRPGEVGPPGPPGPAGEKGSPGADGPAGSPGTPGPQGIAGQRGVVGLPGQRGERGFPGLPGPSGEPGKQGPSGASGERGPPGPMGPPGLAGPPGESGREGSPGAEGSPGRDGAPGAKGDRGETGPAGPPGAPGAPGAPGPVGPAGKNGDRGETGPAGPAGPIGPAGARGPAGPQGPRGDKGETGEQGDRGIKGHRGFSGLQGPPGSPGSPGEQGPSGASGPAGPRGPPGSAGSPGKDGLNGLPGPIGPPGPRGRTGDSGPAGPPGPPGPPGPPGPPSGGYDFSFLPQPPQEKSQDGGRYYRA
T1 sequence (P02466 86-1125, chain 2 of 2): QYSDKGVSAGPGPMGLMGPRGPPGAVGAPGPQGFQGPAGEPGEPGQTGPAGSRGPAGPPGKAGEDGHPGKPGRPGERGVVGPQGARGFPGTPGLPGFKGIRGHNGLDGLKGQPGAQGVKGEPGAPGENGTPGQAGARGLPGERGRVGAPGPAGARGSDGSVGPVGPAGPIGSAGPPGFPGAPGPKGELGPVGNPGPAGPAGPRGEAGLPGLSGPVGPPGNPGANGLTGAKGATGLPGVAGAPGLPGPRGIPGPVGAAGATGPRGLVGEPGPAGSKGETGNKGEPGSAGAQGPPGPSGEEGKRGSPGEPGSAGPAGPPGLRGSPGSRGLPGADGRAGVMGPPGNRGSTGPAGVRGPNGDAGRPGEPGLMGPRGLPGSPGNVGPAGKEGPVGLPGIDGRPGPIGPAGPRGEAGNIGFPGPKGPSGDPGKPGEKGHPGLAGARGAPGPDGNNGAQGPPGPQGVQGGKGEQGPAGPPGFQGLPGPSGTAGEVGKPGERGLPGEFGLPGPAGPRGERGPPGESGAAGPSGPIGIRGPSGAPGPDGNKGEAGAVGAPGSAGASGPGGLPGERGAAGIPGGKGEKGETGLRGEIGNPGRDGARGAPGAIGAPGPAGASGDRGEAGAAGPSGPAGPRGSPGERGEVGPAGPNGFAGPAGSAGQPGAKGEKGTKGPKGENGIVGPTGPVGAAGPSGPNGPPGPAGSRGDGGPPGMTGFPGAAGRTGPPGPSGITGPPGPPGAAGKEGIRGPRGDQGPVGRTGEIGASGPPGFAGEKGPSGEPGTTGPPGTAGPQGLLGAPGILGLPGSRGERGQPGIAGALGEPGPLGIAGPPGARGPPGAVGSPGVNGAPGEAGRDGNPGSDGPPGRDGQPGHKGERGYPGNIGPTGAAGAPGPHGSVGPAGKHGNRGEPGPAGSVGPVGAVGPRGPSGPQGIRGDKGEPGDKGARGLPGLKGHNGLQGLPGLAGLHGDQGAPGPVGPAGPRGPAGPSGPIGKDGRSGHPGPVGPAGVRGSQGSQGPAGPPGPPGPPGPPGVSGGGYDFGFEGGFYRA
Test: dried collagen assay
Bridge positions count the residues as written; N and C are the ends. Square brackets hold non-standard residues; d marks the D form. Primed or numbered codes have the meaning given here. Side chains are listed from the residue outwards. Ends that are not written are not given here. Bpa = N[C@@H](Cc1ccc(C(=O)c2ccccc2)cc1)C(=O)O; Phe(3-OMe) = COc1cccc(C[C@H](N)C(=O)O)c1; Gd^T = not defined here; Gd^T″ = GdDTPA-thiourea
Could you please report measured % bound for the items listed next?
The reply should contain only the number, in %.

Documented % bound of {Gd^T″}-GK([Gly-Gd^T″])WHCYTYFPHHYCVYGK(Gd^T″) (disulfide 5-14 (inferred); not fully specified (C-terminus)) [Compound ID 974] : 69

Documented % bound of {Gd^T″}-GQWHCTTRFPHH[Phe(3-OMe)]CLYG (disulfide 5-14 (inferred)) [Compound ID 935] : 39

Documented % bound of {Gd^T″}-GQWHCTTD[Bpa]PHHYCLYG (disulfide 5-14) [Compound ID 882] : 13

Documented % bound of {Gd^T}-DWTCSGDEYTWYCNYE (disulfide 4-13 (inferred); not fully specified (C-terminus); reading uncertain) [Compound ID 842] : 9
